Test system: THRa:RXRa (NR concentration 90 nM, RXRa partner concentration 90 nM)
protocol.description: PBM binding z-score (relative to random genomic background probes); higher = stronger binding; sequences stand for … in GC…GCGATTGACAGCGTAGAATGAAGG
experimental.endpoint: PBM binding z-score
Numbers only.

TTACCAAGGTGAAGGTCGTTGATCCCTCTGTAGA ... 2.34
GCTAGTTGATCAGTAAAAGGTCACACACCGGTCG ... 3.45
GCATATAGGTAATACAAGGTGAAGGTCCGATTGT ... 4.08

State the recorded PBM binding z-score for every item in the following list.
1. TATACAGGGTCAAAGTCCAGAGTACGAATGTCGA
2. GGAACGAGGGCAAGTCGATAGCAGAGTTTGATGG
3. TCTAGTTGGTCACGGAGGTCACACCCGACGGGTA
4. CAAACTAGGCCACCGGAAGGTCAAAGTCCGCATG
5. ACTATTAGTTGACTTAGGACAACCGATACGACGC

Completion:
1. 3.65
2. 0.983
3. 3.44
4. 2.93
5. 2.12

State the recorded PBM binding z-score for every item in the following list.
1. CGTCCCAGGTCATAGGAGGTCAGTGAAGACAGAT
2. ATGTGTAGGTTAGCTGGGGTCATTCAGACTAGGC
3. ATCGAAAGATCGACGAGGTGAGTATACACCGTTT
4. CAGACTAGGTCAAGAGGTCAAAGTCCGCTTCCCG
5. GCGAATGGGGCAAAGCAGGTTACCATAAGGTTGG
6. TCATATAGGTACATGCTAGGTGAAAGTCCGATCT

Completion:
1: 4.89; 2: 5.15; 3: 1.14; 4: 4.23; 5: 3.12; 6: 2.02

State the recorded PBM binding z-score for every item in the following list.
1. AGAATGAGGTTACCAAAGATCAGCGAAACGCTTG
2. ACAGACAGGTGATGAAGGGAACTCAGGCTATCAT
3. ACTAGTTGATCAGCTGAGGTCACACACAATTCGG
4. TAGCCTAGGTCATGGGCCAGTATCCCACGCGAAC
5. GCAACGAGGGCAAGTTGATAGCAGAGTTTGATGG
6. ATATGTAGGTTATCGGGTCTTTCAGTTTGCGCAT
7. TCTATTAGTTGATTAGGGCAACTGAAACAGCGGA

Completion:
2.73
0.341
4.3
3.18
1.36
1.08
0.533

State the recorded PBM binding z-score for every item in the following list.
1. CCTCGGAGGACAGTAGGTCAGAGCTGTCCGCTTT
2. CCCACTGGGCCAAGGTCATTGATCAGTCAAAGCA

Completion:
1: 1.43; 2: 3.3

State the recorded PBM binding z-score for every item in the following list.
1. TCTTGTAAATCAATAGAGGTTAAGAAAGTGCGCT
2. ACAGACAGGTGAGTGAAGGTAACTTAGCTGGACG
3. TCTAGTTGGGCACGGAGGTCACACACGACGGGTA
4. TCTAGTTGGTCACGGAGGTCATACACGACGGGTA

Completion:
1.56
1.46
3.34
3.5

###

System: THRa homodimer (NR concentration 90 nM)
protocol.description: PBM binding z-score (relative to random genomic background probes); higher = stronger binding; sequences stand for … in GC…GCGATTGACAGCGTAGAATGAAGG
Exercise: for every item that follows, state its recorded PBM binding z-score.
One number for each entry.

Known results for sequences:
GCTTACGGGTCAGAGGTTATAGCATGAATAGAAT ... -0.0589
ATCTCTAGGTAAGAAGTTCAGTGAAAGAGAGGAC ... 0.234
GCTGATAGGTCAGGTTGGTCAGCTAACGGGTACG ... -0.126
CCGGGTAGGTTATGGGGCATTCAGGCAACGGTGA ... 0.313

// next entry
// PBM binding z-score lookup, sequence = `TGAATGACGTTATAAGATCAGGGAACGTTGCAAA` , result: -0.323

###

System: RARb homodimer (NR concentration 270 nM)
protocol.description: PBM binding z-score (relative to random genomic background probes); higher = stronger binding; sequences stand for … in GC…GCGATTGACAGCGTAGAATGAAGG
Exercise: for every item that follows, state its recorded PBM binding z-score.
One number for each entry.

State the recorded PBM binding z-score for every item in the following list.
1. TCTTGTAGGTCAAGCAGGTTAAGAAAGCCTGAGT
2. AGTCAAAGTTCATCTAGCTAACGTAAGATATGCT
3. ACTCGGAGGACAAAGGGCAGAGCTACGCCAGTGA

Completion:
1. 3.48
2. 3.76
3. 1.69

###

System: PPARg DBDmut:RXRa IVT, anti-PPARg (DBD mutation: PPARg1 K132A/R137A, NR concentration 270 nM, RXRa partner concentration 90 nM)
protocol.description: PBM binding z-score (relative to random genomic background probes); higher = stronger binding; sequences stand for … in GC…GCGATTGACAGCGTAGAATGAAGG
# binarize PBM binding z-score: threshold 0.4 inclusive, high side TRUE, low side FALSE

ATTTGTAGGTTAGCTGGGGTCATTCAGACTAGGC ... TRUE
CGAACTAGGTCAGAACATGACAGTGAAGGATGAT ... TRUE
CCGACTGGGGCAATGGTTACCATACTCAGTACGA ... FALSE
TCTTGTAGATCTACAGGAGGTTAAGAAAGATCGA ... TRUE
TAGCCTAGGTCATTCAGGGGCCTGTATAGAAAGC ... FALSE
TCTGCTAGGTCGGTTGGTCAGCTAACGAGCTGCC ... FALSE

Prompt: Please indicate if the recorded PBM binding z-score for `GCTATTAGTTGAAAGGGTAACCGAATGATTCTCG` meets or exceeds 0.4.
Completion: FALSE

Prompt: Please indicate if the recorded PBM binding z-score for `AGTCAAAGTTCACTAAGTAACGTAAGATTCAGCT` meets or exceeds 0.4.
Completion: TRUE

Prompt: Please indicate if the recorded PBM binding z-score for `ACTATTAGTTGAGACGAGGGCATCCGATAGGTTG` meets or exceeds 0.4.
Completion: TRUE

###

Exercise: for every item that follows, state its recorded PBM binding z-score.
Tested on: LXRb:RXRa (NR concentration 270 nM, RXRa partner concentration 90 nM)
protocol.description: PBM binding z-score (relative to random genomic background probes); higher = stronger binding; sequences stand for … in GC…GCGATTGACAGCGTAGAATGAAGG
Answers are plain numbers.

Known results for sequences:
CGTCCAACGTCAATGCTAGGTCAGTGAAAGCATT ... 0.323
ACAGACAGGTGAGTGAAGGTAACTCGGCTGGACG ... -0.781
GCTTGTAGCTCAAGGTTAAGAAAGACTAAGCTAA ... 0.165
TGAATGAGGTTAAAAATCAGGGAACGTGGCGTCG ... 1.1
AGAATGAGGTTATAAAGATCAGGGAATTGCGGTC ... 1.17

State the recorded PBM binding z-score for every item in the following list.
1. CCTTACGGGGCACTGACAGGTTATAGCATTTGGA
2. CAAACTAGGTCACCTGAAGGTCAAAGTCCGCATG
3. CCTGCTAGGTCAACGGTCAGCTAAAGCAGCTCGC
4. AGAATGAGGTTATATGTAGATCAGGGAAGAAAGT

Completion:
0.0491
5.04
2.17
1.82

###

Tested on: VDR:RXRa (NR concentration 270 nM, RXRa partner concentration 90 nM)
protocol.description: PBM binding z-score (relative to random genomic background probes); higher = stronger binding; sequences stand for … in GC…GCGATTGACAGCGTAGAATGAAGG
Exercise: for every item that follows, state its recorded PBM binding z-score.
Numbers only.

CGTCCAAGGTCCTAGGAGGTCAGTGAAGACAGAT ... 2.88
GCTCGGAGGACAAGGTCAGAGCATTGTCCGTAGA ... 1.5
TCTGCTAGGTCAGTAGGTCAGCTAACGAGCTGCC ... 0.994

State the recorded PBM binding z-score for every item in the following list.
1. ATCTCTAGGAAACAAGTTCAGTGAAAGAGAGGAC
2. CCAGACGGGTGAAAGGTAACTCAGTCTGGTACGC
3. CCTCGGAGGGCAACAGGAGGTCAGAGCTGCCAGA
4. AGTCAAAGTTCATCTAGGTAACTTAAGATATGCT
5. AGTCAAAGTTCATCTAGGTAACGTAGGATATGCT
6. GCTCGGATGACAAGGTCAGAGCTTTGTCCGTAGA

Completion:
1: 1.45; 2: 0.319; 3: 3.12; 4: 4.95; 5: 5.09; 6: 0.722

###

System: PPARg homodimer (NR concentration 180 nM)
protocol.description: PBM binding z-score (relative to random genomic background probes); higher = stronger binding; sequences stand for … in GC…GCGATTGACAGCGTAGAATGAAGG
experimental.endpoint: PBM binding z-score
Give bare numbers.

Known results for sequences:
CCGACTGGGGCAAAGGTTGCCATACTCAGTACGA ... 0.733
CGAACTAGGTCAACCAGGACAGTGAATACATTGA ... 1.73

State the recorded PBM binding z-score for every item in the following list.
1. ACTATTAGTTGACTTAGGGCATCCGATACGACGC
2. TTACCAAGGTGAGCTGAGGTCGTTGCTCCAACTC
3. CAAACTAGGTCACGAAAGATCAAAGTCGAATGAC

Completion:
1: 0.0693; 2: -0.419; 3: 2.46

State the recorded PBM binding z-score for every item in the following list.
1. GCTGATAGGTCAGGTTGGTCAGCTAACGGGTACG
2. GCTGTTAGGTCAGGTTGGTCAGCTAACGGGTACG

Completion:
1. 1.32
2. 1.07
